- System: HIV-1NL4-3
- protocol: P4-MAGI assay
- Assay type: cell-based
- protocol-conditions: Human immunodeficiency virus 1, 24 h, P4 cells, 24 hour incubation, β-galactosidase expression; read-out: P4-MAGI IC50
The compounds listed here are annotated with their IC50.

compound: C=C(C)[C@@H]1CC[C@]2(C(=O)NCCc3cccc(C(=O)NC(Cc4ccc(O)cc4)C(=O)O)c3)CC[C@]3(C)C(CCC4[C@@]5(C)CC[C@H](O)C(C)(C)C5CC[C@]43C)C12 (some centres unmarked)
test-target: HIV-1NL4-3
scale-unit: nM
IC50: 1100

compound: C=C(C)[C@@H]1CC[C@]2(C(=O)NCCc3cccc(C(=O)N4CCC(c5ccccc5)CC4)c3)CC[C@]3(C)C(CCC4[C@@]5(C)CC[C@H](O)C(C)(C)C5CC[C@]43C)C12 (some centres unmarked)
test-target: HIV-1NL4-3
scale-unit: nM
IC50: 1000

compound: C=C(C)[C@@H]1CC[C@]2(C(=O)NCc3cccc(C(=O)NCc4cccc(C(N)=O)c4)c3)CC[C@]3(C)C(CCC4[C@@]5(C)CC[C@H](O)C(C)(C)C5CC[C@]43C)C12 (some centres unmarked)
test-target: HIV-1NL4-3
scale-unit: nM
IC50: 52.7

compound: C=C(C)[C@@H]1CC[C@]2(C(=O)NCc3cccc(C(=O)NCCc4cc(OC)cc(OC)c4)c3)CC[C@]3(C)C(CCC4[C@@]5(C)CC[C@H](O)C(C)(C)C5CC[C@]43C)C12 (some centres unmarked)
test-target: HIV-1NL4-3
scale-unit: nM
IC50: 52

compound: C=C(C)[C@@H]1CC[C@]2(C(=O)NCc3ccc(F)c(C(=O)NCc4cccc(C(=O)O)c4)c3)CC[C@]3(C)C(CCC4[C@@]5(C)CC[C@H](O)C(C)(C)C5CC[C@]43C)C12 (some centres unmarked)
test-target: HIV-1NL4-3
scale-unit: nM
IC50: 149
